Tested on: NCI-H23 lung
run_description: NCI-60 one-dose screen, 48 h
condition_notes: 10 µM unless noted
Procedure: Growth inhibition of the NCI-H23 human Non-Small Cell Lung tumor cell line is measured as a screen for anti-cancer activity. Cells are grown in 96 well plates and exposed to the test compound for 48 hours. Compounds are tested at a single concentration, which is 10^-5 M for most compounds. The reported endpoint is percent growth (GI% or GIPRCNT), where numbers from 0 - 100% represent growth inhibition, and numbers from -100% - 0 represent cell death. […]
Compounds without any hit were thinned out: in the full panel of roughly 83,000, 20% have a hit. Active and inactive are the calls of the source. How the source made its calls: active means growth percent below 10; inactive means the rest.
Possible outcomes: active, inactive

| molecule | measured_on | answer_label |
| --- | --- | --- |
| CC1(C)[C@@H](O)CC[C@]2(C)[C@H]3CC[C@@H]4[C@H]5[C@H](c6cn(-c7ccccc7)nn6)CC[C@]5(CO)CC[C@@]4(C)[C@]3(C)CC[C@@H]12 | NCI-H23 lung | inactive |
| CCOC(=O)C1CCN(S(=O)(=O)/N=C2/NC(=O)NC2=C(Cl)Cl)CC1 | NCI-H23 lung | inactive |
| COc1ccc2[nH]c(-c3ccccc3)c(C=C(C#N)C#N)c2c1 | NCI-H23 lung | inactive |
| OCCNc1nc(NCCO)nc(Nc2ccc(C3=NN(c4cc(Cl)cc(Cl)c4)C(c4ccc(Cl)cc4)C3)cc2)n1 (stereo not drawn) | NCI-H23 lung | inactive |
| CC(C)(C)c1nn(-c2ccccc2)c2c1COCN2Cc1ccc(Cl)cc1 | NCI-H23 lung | inactive |
| COc1ccccc1-c1ccc2nc(NC(=O)Nc3cc(C(F)(F)F)cc(C(F)(F)F)c3)sc2c1 | NCI-H23 lung | active |
| C=CCn1c(SCC(=O)Nc2ccc(C(=O)/C=C/c3cc(OC)c(OC)c(OC)c3)cc2)nnc1-c1ccc(Cl)cc1 | NCI-H23 lung | inactive |
| c1ccc(-c2cn3ccnc3c(-c3ccc4c(c3)ncn4C3CCCCC3)n2)cc1 | NCI-H23 lung | inactive |

----------
System: MOLT-4 leukemia
run_description: NCI-60 one-dose screen, 48 h (100 = growth as untreated, 0 = no growth, -100 = all killed)
condition_notes: 10 µM unless noted
This is part of a sample that, as a whole, favours compounds with a hit. Of some 83,000 tested, about 20% had one in any assay.

| structure_smiles | endpoint_unit | growth |
| --- | --- | --- |
| COC(=O)c1cncc(C(=O)Nc2ccc(-n3cnc4ccccc43)cc2)c1 | % | 90.2 |
| C#CCOC(=O)[C@]1(C)CCC[C@]2(C)[C@H]3C[C@H]4C(C(C)C)=C[C@]3(CC[C@H]21)[C@@H]1C(=O)CCC(=O)[C@@H]14 | % | 73.5 |
| COc1ccc2oc(=O)cc(-c3nc4ccc(N)cc4[nH]3)c2c1 | % | 73.4 |
| CC(C)(C#N)c1cc(F)cc(C(=O)Nc2cc(Nc3ncccc3-c3ncnc4nc[nH]c34)ccc2F)c1 | % | 29.2 |

----------
Tested on: EKVX NSCLC
run_description: NCI-60 one-dose screen, 48 h (100 = growth as untreated, 0 = no growth, -100 = all killed)
condition_notes: 10 µM unless noted
Compounds without any hit were thinned out: in the full panel of roughly 83,000, 20% have a hit.
# growth annotations

| compound | growth (%) |
| --- | --- |
| CC(=O)OCC1OC(OC2C(COC(C)=O)OC(OCCC[S-])C(OC(C)=O)C2OC(C)=O)C(OC(C)=O)C(OC(C)=O)C1OC(C)=O.[Au+].c1ccc(CN2[CH-]N(Cc3ccccc3)C(c3ccccc3)=C2c2ccccc2)cc1 (stereo not drawn) | 28.1 |
| CC(C)C1=C[C@@]23CC[C@H]4[C@](C)(COCCC#N)CCC[C@]4(C)[C@H]2C[C@@H]1[C@@H]1[C@H]3[C@@H](OCCC#N)CC[C@@H]1OCCC#N | 17.6 |
| COc1ccc(-n2cc(-c3ccc(Cl)c(Cl)c3)[nH]c2=O)cc1OC | 93.6 |
| CC(=O)[C@@H]1CC[C@]2(C(=O)O)CC[C@]3(C)[C@H](CC[C@@H]4[C@@]5(C)Cc6c([nH]c7ccccc67)C(C)(C)[C@@H]5CC[C@]43C)[C@@H]12 | 42.3 |
| COCCOC(=O)COc1ccc(OC)cc1 | 96.6 |
| C=C1C(=O)O[C@H]2[C@H]1CC/C(COC(=O)Nc1nc3ccccc3[nH]1)=C\CC[C@@]1(C)O[C@@H]21 | 58.7 |
| O=c1c2ccccc2oc2ccc(OCCCCCN3CCCCCC3)cc12 | 90.4 |
| O=C(O)CCNC1CCCCC1 | 115 |

Source of measurements: PubChem BioAssay (NCI)
